# EC50 listing for each entry below
# ASSAY_TARGET: T1, monkey MSLN on HEK293T-monkey MSLN recombinant cells (monkey)
# T1 construct: Full-length precursor as transfected; processing on the cell is not described; also called HEK293-monkey MSLN
# T1 chain: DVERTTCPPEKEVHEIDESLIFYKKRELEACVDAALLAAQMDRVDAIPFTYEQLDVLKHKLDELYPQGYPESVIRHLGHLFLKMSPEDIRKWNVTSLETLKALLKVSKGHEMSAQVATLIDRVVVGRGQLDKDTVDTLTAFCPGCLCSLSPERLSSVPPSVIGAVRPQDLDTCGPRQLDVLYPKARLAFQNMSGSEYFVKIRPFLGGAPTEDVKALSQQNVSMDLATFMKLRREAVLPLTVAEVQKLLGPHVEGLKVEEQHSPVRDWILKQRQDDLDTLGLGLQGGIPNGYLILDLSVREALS
# PROCEDURE_DETAILS: FACS, HEK293T-monkey MSLN cells
Kindly provide the numeric value in nM only, without the unit symbol.

{"BINDER": "F7.33.24-H12 (scFv, not shown: small tags and cut ends, also called S009-F7.33.24 humanized antibody VH2a + VL3) scFv: EVQLVQSGAEVKKPGASVKVSCKASGYTFTSYWMHWVRQAPGQGLEWMGNVNPSNAGSNYNEKFKNRVTITVDKSASTAYMELSSLRSEDTAVYYCAPHYIGSRPGFAYWGQGTLVTVSSGGGGSGGGGSGGGGSDIVMTQTPLSLSVTPGQPASISCKASQNVGTNIAWYQQKPGQSPQALIYSASYRYSGVPDRFSGSGSGTDFTLKISRVEAEDVGVYYCQQYNSYPLTFGGGTKVEIK", "UNIT_TEXT": "nM", "EC50": 5.07}
{"BINDER": "F7.33.24-H10 (scFv, not shown: small tags and cut ends, also called S009-F7.33.24 humanized antibody VH2a + VL1) scFv: EVQLVQSGAEVKKPGASVKVSCKASGYTFTSYWMHWVRQAPGQGLEWMGNVNPSNAGSNYNEKFKNRVTITVDKSASTAYMELSSLRSEDTAVYYCAPHYIGSRPGFAYWGQGTLVTVSSGGGGSGGGGSGGGGSDIVMTQSPDSLAVSLGERATINCKASQNVGTNIAWYQQKPGQSPKALIYSASYRYSGVPDRFSGSGSGTDFTLTISSLQAEDVAVYYCQQYNSYPLTFGGGTKVEIK", "UNIT_TEXT": "nM", "EC50": 3.94}
{"BINDER": "F7.33.24-H5 (scFv, not shown: small tags and cut ends, also called S009-F7.33.24 humanized antibody VH1a + VL2) scFv: EVQLVQSGAEVKKPGASVKVSCKASGYTFTSYWMHWVRQAPGQRLEWMGNVNPSSGGSNYNEKFKNRVTITVDKSASTAYMELSSLRSEDTAVYYCAPHYIGSRPGFAYWGQGTLVTVSSGGGGSGGGGSGGGGSDIVMTQTPLSLSVTPGQPASISCKASQNVGTNIAWYLQKPGQSPQALIYSASYRYSGVPDRFSGSGSGTDFTLKISRVEAEDVGVYYCQQYNSYPLTFGGGTKVEIK", "UNIT_TEXT": "nM", "EC50": 4.98}

Note: attention shifts to another entry.
State its EC50 for this binder: F7.33.24-H2 (scFv, not shown: small tags and cut ends, also called S009-F7.33.24 humanized antibody VH1 + VL2) scFv: EVQLVQSGAEVKKPGASVKVSCKASGYTFTSYWMHWVRQAPGQRLEWMGNVNPSNGGSNYNEKFKNRVTITVDKSASTAYMELSSLRSEDTAVYYCAPHYIGSRPGFAYWGQGTLVTVSSGGGGSGGGGSGGGGSDIVMTQTPLSLSVTPGQPASISCKASQNVGTNIAWYLQKPGQSPQALIYSASYRYSGVPDRFSGSGSGTDFTLKISRVEAEDVGVYYCQQYNSYPLTFGGGTKVEIK
5.11
